- System: rat
- run.description: Rat Acute Kidney Injury (AKI) Model, renal ischemia-reperfusion
- Type: in vivo
- Set-up: concentration or dose not given beside the values
- recorded.conditions: 30 minutes renal artery occlusion of both kidneys, 24 hours after reperfusion, relative to vehicle
assay.endpoint: Plasma Creatinine, % Protection, Mean (%)
Field: numeric (%). Do not append units.

Exercise: Name the recorded Plasma Creatinine, % Protection, Mean of the molecule listed here: Cc1cc(O)cc(C)c1C[C@H](NC(=O)[C@H](N)CCCNC(=N)N)C(=O)N[C@@H](CCCCN)c1nc(Cc2ccc(C(C)(C)C)cc2)no1
Key: 38.9

Exercise: Name the recorded Plasma Creatinine, % Protection, Mean of the molecule listed here: Cc1cc(O)cc(C)c1C[C@H](NC(=O)[C@@H](CCN)NC(=N)N)C(=O)N[C@@H](CCCN)c1nc(Cc2ccccc2)no1
Key: 32.0

Exercise: Name the recorded Plasma Creatinine, % Protection, Mean of the molecule listed here: Cc1cc(O)cc(C)c1C[C@H](NC(=O)[C@H](N)CCCn1ccnc1N)C(=O)N[C@@H](CCCN)c1nc(CC2CCCCC2)no1
Key: 53.4

Exercise: Name the recorded Plasma Creatinine, % Protection, Mean of the molecule listed here: Cc1cc(O)cc(C)c1C[C@H](NC(=O)[C@H](N)CCCNC(=N)N)C(=O)N[C@@H](CCCCN)c1nc(Cc2ccccc2)no1
Key: 86.2

Exercise: Name the recorded Plasma Creatinine, % Protection, Mean of the molecule listed here: Cc1cc(O)cc(C)c1C[C@H](NC(=O)[C@H](N)CCCNC(=N)N)C(=O)N[C@@H](CCCCN)c1nc(CC23CC4CC(CC(C4)C2)C3)no1
Key: 30.7
